Reference source for all entries: patent US20210181109A1

test: NAC depletion percent, HPLC-fluorescence detection; settings: Fluorescence method; non-allergenic substance
value.kind: NAC depletion (%)

>>> measured("CCCCCCCCCCCCCC(=O)OC(C)C [Isopropyl myristate]")
0.4
>>> measured("O=c1ccc2ccccc2o1")
1.2
>>> measured("Nc1ccc(S(N)(=O)=O)cc1 [Sulfanilamide]")
0.5
>>> measured("COc1ccc(C(C)=O)cc1")
1.2
>>> measured("COc1cc(C=O)ccc1O")
2.0
>>> measured("COC(=O)c1ccccc1O [Methyl salicylate]")
0.3
>>> measured("Nc1ccc(S(=O)(=O)O)cc1")
0.0
>>> measured("CCCCCCCCC(=O)O")
0.0
>>> measured("CCCCBr")
0.0
